Source of measurements: patent US20170296640A1

# reported peptide exchange yield; entries follow
Assayed Target: T1, HLA-A*02:01 (peptide-receptive MHC class I monomer after UV cleavage of the UV-sensitive ligand) (human)
T1 construct: MHC monomers loaded by UV-ligand exchange and captured on streptavidin plates
Protocol Summary: UV ligand-exchange ELISA; exchange yield grade (+ >=10%, ++ >=20%, +++ >=50%, ++++ >=75%)

Entry VMESILLRL [VMESILLRL (SEQ ID NO: 175)] : reported peptide exchange yield = ?
50 to 75%

Entry SLLNKDLSL [SLLNKDLSL (SEQ ID NO: 61)] : reported peptide exchange yield = ?
≥ 75%

Entry KLIQLPVVYV [KLIQLPVVYV (SEQ ID NO: 245)] : reported peptide exchange yield = ?
50 to 75%

Moving on to the next binder.
Entry FIDDLFAFV [FIDDLFAFV (SEQ ID NO: 211)] : reported peptide exchange yield = ?
50 to 75%
